Each recorded value in this set is attributed to patent US10168342B2.

Reported SILAC ratio, Pmpca values for the following compounds.
Biological target: AEA-DA lipid probe targets in Neuro2a cells (Mus musculus, UniProt Q9DC61)
Sequence (Q9DC61 34-524): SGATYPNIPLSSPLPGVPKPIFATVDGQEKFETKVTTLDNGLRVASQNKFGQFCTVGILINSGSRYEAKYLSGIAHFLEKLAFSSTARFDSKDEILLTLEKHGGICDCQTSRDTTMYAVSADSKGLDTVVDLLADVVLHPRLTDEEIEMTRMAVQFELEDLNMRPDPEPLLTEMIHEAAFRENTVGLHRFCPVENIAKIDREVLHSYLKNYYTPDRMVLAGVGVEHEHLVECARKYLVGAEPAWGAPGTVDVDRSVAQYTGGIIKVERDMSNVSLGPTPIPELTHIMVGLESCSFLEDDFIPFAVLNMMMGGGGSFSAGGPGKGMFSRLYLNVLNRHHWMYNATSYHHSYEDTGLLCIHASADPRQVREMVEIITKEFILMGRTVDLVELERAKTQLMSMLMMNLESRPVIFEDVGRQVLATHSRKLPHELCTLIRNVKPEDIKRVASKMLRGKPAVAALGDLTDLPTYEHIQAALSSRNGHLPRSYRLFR
Conditions: competitor 25 μM
# print the numeric value only

Known SILAC ratio, Pmpca results, listed for orientation:
compound	testedSystem	recordedValue
CN1CCN(C(=O)c2c(-c3ccccc3)c3cc([N+](=O)[O-])ccc3n2C)CC1	AEA-DA lipid probe targets in Neuro2a cells (Mus musculus, UniProt Q9DC61)	1.6
O=C(/C=C/c1cccnc1)NCCCCC1CCN(C(=O)c2ccccc2)CC1 [FK-866, reference compound]	AEA-DA lipid probe targets in Neuro2a cells (Mus musculus, UniProt Q9DC61)	1.2
CN1CCN(C(=O)c2[nH]c3ccc([N+](=O)[O-])cc3c2-c2ccccc2)CC1	AEA-DA lipid probe targets in Neuro2a cells (Mus musculus, UniProt Q9DC61)	1.4

# evaluate next
Note to self: SILAC ratio, Pmpca recorded for C=CCN(C)CCCCCCOc1ccc(C(=O)c2ccc(Br)cc2)c(F)c1 [Ro 48-8071, reference compound] was 0.9

====

target: AEA-DA lipid probe targets in Neuro2a cells (Mus musculus); conditions: competitor 25 μM
measuredParameter: SILAC ratio Atp5l

Known SILAC ratio Atp5l results, listed for orientation:
compound	SILAC ratio Atp5l
C=CCN(C)CCCCCCOc1ccc(C(=O)c2ccc(Br)cc2)c(F)c1 [Ro 48-8071, reference compound]	1.0
O=C(/C=C/c1cccnc1)NCCCCC1CCN(C(=O)c2ccccc2)CC1 [FK-866, reference compound]	1.1
CN1CCN(C(=O)c2c(-c3ccccc3)c3cc([N+](=O)[O-])ccc3n2C)CC1 [KML110]	1.2

Given the compound CN1CCN(C(=O)c2[nH]c3ccc([N+](=O)[O-])cc3c2-c2ccccc2)CC1 [MJN228] and test system AEA-DA lipid probe targets in Neuro2a cells (Mus musculus), the measured SILAC ratio Atp5l is 1.5

====

Reported SILAC ratio Lmf2 values for the following compounds.
target: AEA-DA lipid probe targets in Neuro2a cells (Mus musculus, UniProt Q8C3X8); details: competitor 25 μM
Sequence (Q8C3X8 whole entry): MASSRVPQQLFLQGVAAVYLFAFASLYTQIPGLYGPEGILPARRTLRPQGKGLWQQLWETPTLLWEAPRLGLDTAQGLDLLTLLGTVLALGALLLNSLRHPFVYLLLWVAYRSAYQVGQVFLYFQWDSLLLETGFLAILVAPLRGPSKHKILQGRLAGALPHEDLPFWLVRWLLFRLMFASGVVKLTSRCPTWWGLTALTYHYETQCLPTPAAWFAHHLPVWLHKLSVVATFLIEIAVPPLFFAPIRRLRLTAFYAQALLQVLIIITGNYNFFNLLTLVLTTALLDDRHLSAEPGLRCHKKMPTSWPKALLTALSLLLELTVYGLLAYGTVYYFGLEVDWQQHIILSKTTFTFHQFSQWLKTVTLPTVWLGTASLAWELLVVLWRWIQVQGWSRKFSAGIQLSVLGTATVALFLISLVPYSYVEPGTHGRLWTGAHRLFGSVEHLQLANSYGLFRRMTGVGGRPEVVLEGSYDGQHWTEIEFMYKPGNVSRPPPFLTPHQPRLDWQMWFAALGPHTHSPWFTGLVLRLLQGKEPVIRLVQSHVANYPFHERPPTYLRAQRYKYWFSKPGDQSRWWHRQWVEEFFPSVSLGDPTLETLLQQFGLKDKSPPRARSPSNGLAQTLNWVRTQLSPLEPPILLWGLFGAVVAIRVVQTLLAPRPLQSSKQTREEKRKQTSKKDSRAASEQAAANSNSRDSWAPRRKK

Known SILAC ratio Lmf2 results, listed for orientation:
compound	recordedValue
CN1CCN(C(=O)c2[nH]c3ccc([N+](=O)[O-])cc3c2-c2ccccc2)CC1	1.7
C=CCN(C)CCCCCCOc1ccc(C(=O)c2ccc(Br)cc2)c(F)c1 [Ro 48-8071, reference compound]	1.3
CN1CCN(C(=O)c2c(-c3ccccc3)c3cc([N+](=O)[O-])ccc3n2C)CC1	1.7

# evaluate next
Note to self: SILAC ratio Lmf2 recorded for O=C(/C=C/c1cccnc1)NCCCCC1CCN(C(=O)c2ccccc2)CC1 [FK-866, reference compound] was 1.2

====

Reported SILAC ratio, Cyp20a1 values for the following compounds.
target: AEA-DA lipid probe targets in Neuro2a cells (Mus musculus, UniProt Q8BKE6); conditions: competitor 25 μM
Sequence (Q8BKE6 whole entry): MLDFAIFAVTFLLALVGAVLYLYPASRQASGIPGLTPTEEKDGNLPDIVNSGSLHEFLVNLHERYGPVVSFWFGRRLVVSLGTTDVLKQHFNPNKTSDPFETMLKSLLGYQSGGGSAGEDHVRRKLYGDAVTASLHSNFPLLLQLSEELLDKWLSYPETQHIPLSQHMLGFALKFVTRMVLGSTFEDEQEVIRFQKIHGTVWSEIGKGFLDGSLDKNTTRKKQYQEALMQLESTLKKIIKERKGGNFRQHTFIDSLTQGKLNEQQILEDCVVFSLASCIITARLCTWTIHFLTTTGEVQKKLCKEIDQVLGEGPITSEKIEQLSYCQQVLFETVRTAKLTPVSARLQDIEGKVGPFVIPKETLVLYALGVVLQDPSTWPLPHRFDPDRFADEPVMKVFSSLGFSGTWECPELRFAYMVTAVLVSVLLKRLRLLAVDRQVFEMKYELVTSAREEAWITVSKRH
# print the numeric value only

Known SILAC ratio, Cyp20a1 results, listed for orientation:
compound	SILAC ratio, Cyp20a1
CN1CCN(C(=O)c2[nH]c3ccc([N+](=O)[O-])cc3c2-c2ccccc2)CC1	1.3
C=CCN(C)CCCCCCOc1ccc(C(=O)c2ccc(Br)cc2)c(F)c1 [Ro 48-8071, reference compound]	1.1
O=C(/C=C/c1cccnc1)NCCCCC1CCN(C(=O)c2ccccc2)CC1 [FK-866, reference compound]	1.1

# evaluate next
Note to self: SILAC ratio, Cyp20a1 recorded for CN1CCN(C(=O)c2c(-c3ccccc3)c3cc([N+](=O)[O-])ccc3n2C)CC1 was 1.4

====

Reported SILAC ratio Psmb6 values for the following compounds.
biological target: AEA-DA lipid probe targets in Neuro2a cells (Mus musculus, UniProt Q60692); settings: competitor 25 μM
Sequence (Q60692 whole entry): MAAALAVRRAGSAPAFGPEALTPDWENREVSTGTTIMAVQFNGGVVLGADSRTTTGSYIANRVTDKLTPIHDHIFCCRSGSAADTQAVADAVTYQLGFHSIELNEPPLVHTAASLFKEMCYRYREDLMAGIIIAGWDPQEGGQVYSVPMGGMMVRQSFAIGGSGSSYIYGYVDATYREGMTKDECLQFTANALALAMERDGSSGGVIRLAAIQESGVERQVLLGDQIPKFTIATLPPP
# print the numeric value only

Known SILAC ratio Psmb6 results, listed for orientation:
compound	testedSystem	measuredParameter	recordedValue
O=C(/C=C/c1cccnc1)NCCCCC1CCN(C(=O)c2ccccc2)CC1 [FK-866, reference compound]	AEA-DA lipid probe targets in Neuro2a cells (Mus musculus, UniProt Q60692)	SILAC ratio Psmb6	1.4
CN1CCN(C(=O)c2[nH]c3ccc([N+](=O)[O-])cc3c2-c2ccccc2)CC1 [MJN228]	AEA-DA lipid probe targets in Neuro2a cells (Mus musculus, UniProt Q60692)	SILAC ratio Psmb6	1.5
C=CCN(C)CCCCCCOc1ccc(C(=O)c2ccc(Br)cc2)c(F)c1 [Ro 48-8071, reference compound]	AEA-DA lipid probe targets in Neuro2a cells (Mus musculus, UniProt Q60692)	SILAC ratio Psmb6	1.0

# evaluate next
Note to self: SILAC ratio Psmb6 recorded for CN1CCN(C(=O)c2c(-c3ccccc3)c3cc([N+](=O)[O-])ccc3n2C)CC1 [KML110] was 1.9

====

molecular target: AEA-DA lipid probe targets in Neuro2a cells (Mus musculus, UniProt Q80W54); settings: competitor 25 μM
Sequence (Q80W54 whole entry): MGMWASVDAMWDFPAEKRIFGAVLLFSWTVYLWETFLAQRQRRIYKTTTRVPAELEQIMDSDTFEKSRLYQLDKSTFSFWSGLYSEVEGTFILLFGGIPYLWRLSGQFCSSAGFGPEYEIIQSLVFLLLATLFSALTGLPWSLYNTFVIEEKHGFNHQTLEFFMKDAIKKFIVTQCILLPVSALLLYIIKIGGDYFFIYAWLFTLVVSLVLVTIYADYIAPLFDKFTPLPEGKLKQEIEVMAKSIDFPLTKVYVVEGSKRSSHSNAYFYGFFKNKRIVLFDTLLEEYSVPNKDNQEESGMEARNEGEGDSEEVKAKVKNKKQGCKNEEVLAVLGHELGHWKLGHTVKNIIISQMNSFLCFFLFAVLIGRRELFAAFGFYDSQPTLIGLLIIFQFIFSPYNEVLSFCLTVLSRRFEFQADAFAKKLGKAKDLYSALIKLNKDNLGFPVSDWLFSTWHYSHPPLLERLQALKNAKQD
measuredParameter: SILAC ratio Zmpste24
# print the numeric value only

Known SILAC ratio Zmpste24 results, listed for orientation:
compound	testedSystem	SILAC ratio Zmpste24
O=C(/C=C/c1cccnc1)NCCCCC1CCN(C(=O)c2ccccc2)CC1 [FK-866, reference compound]	AEA-DA lipid probe targets in Neuro2a cells (Mus musculus, UniProt Q80W54)	1.1
CN1CCN(C(=O)c2[nH]c3ccc([N+](=O)[O-])cc3c2-c2ccccc2)CC1	AEA-DA lipid probe targets in Neuro2a cells (Mus musculus, UniProt Q80W54)	1.2
CN1CCN(C(=O)c2c(-c3ccccc3)c3cc([N+](=O)[O-])ccc3n2C)CC1	AEA-DA lipid probe targets in Neuro2a cells (Mus musculus, UniProt Q80W54)	1.4

# evaluate next
Note to self: SILAC ratio Zmpste24 recorded for C=CCN(C)CCCCCCOc1ccc(C(=O)c2ccc(Br)cc2)c(F)c1 [Ro 48-8071, reference compound] was 1.0

====

biological target: AEA-DA lipid probe targets in Neuro2a cells (Mus musculus, UniProt Q9CYN2); conditions: competitor 25 μM
Sequence (Q9CYN2 whole entry): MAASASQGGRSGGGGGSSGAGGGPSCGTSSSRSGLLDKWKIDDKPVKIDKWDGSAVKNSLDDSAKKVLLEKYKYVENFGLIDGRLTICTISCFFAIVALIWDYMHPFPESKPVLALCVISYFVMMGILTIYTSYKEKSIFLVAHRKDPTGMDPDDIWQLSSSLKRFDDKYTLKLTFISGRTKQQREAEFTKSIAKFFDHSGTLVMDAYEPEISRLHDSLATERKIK
Reported SILAC ratio Spcs2 values for the following molecules.
# print the numeric value only

Known SILAC ratio Spcs2 results, listed for orientation:
molecule	recordedValue
CN1CCN(C(=O)c2c(-c3ccccc3)c3cc([N+](=O)[O-])ccc3n2C)CC1	1.6
CN1CCN(C(=O)c2[nH]c3ccc([N+](=O)[O-])cc3c2-c2ccccc2)CC1	1.4
C=CCN(C)CCCCCCOc1ccc(C(=O)c2ccc(Br)cc2)c(F)c1 [Ro 48-8071, reference compound]	1.2

# evaluate next
Note to self: SILAC ratio Spcs2 recorded for O=C(/C=C/c1cccnc1)NCCCCC1CCN(C(=O)c2ccccc2)CC1 [FK-866, reference compound] was 1.3

====

Target: AEA-DA lipid probe targets in Neuro2a cells (Mus musculus, UniProt Q924Z4)
Sequence (Q924Z4 1-380): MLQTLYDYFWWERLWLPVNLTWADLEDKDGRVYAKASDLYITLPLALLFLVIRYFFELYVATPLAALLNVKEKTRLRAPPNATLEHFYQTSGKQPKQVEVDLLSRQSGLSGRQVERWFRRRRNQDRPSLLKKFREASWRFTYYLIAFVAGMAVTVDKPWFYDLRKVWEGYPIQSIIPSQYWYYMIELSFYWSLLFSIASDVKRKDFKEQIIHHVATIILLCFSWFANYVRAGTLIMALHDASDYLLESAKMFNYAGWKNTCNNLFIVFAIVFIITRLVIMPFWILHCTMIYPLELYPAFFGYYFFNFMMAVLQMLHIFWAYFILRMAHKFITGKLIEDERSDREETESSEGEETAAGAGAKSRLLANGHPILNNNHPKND
Settings: competitor 25 μM
measuredParameter: SILAC ratio, Cers2
# print the numeric value only

Known SILAC ratio, Cers2 results, listed for orientation:
molecule	recordedValue
CN1CCN(C(=O)c2[nH]c3ccc([N+](=O)[O-])cc3c2-c2ccccc2)CC1 [MJN228]	3.1
C=CCN(C)CCCCCCOc1ccc(C(=O)c2ccc(Br)cc2)c(F)c1 [Ro 48-8071, reference compound]	1.6
CN1CCN(C(=O)c2c(-c3ccccc3)c3cc([N+](=O)[O-])ccc3n2C)CC1 [KML110]	2.2

# evaluate next
Given the molecule O=C(/C=C/c1cccnc1)NCCCCC1CCN(C(=O)c2ccccc2)CC1 [FK-866, reference compound] and test system AEA-DA lipid probe targets in Neuro2a cells (Mus musculus, UniProt Q924Z4), the measured SILAC ratio, Cers2 is 1.2
